Data credit: patent US4250170A

- experiment: mouse blood level, paper disc-agar plate assay
- Format: in vivo
- reported.conditions: mouse, blood; mice, im, 50 mg./kg.; 30 minutes
parameter.measured: concentration at 0.5 h (ng/mL)

[[record]]
compound = "C=C1OC(OC2C(CO)OC(Oc3ccc(C(=O)NCCCNCCCCNCCCCN)cc3)C2O)C(O)C(OC2OC(CO)C(OC3OC(C)C(N)C(O)C3NC(=O)C(C)N)C(O)C2O)C1O (stereo not shown) [Bu-2349A]"
reported_value = 12000


* * *

- experiment: mouse blood level, paper disc-agar plate assay
- Type: in vivo
- reported.conditions: mouse, blood; mice, im, 50 mg./kg.; 15 minutes
parameter.measured: concentration at 0.25 h

[[record]]
compound = "C=C1OC(OC2C(CO)OC(Oc3ccc(C(=O)NCCCNCCCCNCCCCN)cc3)C2O)C(O)C(OC2OC(CO)C(OC3OC(C)C(N)C(O)C3NC(=O)C(C)N)C(O)C2O)C1O (stereo not shown) [Bu-2349A]"
parameter_measured = "concentration at 0.25 h"
reported_value = "15000 ng/mL"

